biological target: DLG4_2, P78352; assay: holdup assay; parameters: key: below the threshold = too weak to quantify, mostly under pKd 3.1 to 4; conditions: plain residues with an end cap or a label only (N-terminal biotin on a linker: ahx)
Sequence (P78352 155-259): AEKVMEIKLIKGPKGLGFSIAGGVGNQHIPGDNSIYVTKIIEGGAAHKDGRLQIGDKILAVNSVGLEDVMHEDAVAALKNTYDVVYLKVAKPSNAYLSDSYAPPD
This listing pairs binders with measured pKd.
Could you respond with only the numeric value?

Take a look at these entries with their results.
binder="YNSFLSVTTV [PDZRN3, Q9UPQ7]" test_value=4.15
binder="KDECVIATEV [DLL1, O00548]" test_value=4.39
binder="HSATSVHTSV [MTMR1, Q13613]" test_value=4.7
binder="AKPQPVDSWV [ARVCF, O00192]" test_value=4.81

Pending binder:
Consider the binder ADENEQVSAV [RAPGEF6, Q8TEU7] and give its recorded pKd.
4.05
